Assay: yeast display, Sf9 membrane polyspecificity reagent, FACS + sequencing; frameworks hold sequencing errors
MEASURED PROPERTY: polyreactivity (PSR sort gate)

So for QVQLVESGGGIVQAGGSLRLSCAASGGIFYGYAMGWYRQAPGKERELVAAISSTGGRTYYADSVKGRFTISRDNAKNTVYLQMNSLKPEDTAVYYCAAEDFTRQFEYWGQGTQVTVSS , the logged polyreactivity (PSR sort gate) turned out to be low polyreactivity

So for QVQLVESGGGLVQAGGSLRLSCAASGRTFYVNAMGWSRHAPGIERELVAGISFSDGSTYYADSVKWRFTISRDNAKSTVYLQMNSLKPEDTAVYYCATVGALDIYYGYGYWGQGTQVTVSS , the logged polyreactivity (PSR sort gate) turned out to be low polyreactivity

So for QVQLVESGGGLVQAGGSLRLSCAASGSTFDGNAMGWYRQAPGKERELVAGISYRGGSTYYADSVKGRFTISRDNAKNTVYLQMNSLKPEDTAVYYCAADDYGYWLFDYWGQGTQVTVSS , the logged polyreactivity (PSR sort gate) turned out to be low polyreactivity

====

Test: yeast display, Sf9 membrane polyspecificity reagent, FACS + sequencing; frameworks hold sequencing errors
MEASURED PROPERTY: polyreactivity (PSR sort gate)

So for QVQLVESGGGLVQAGGSLRLSCAASGRIFGHYAMGWYRQAPGKERELVAAISRSGTRTYYADSVKGRFTISRDNAKNTVYLQMNSLKPEDTAVYYCAAYTYKGIYYYWGQGTQVTVSS , the logged polyreactivity (PSR sort gate) turned out to be high polyreactivity

So for QVQLVESGGGLFQAGGSLRLSCAASGSIFLYYAMGWYRQAPGKERELDATIRRRDGSTYYADSVKGRFTISRDNAKNTVYLQMNSLIPEDTAVYYCNTAGYYWLHYTMDYWGQVTQVTVSS , the logged polyreactivity (PSR sort gate) turned out to be high polyreactivity

====

Test: yeast display, Sf9 membrane polyspecificity reagent, FACS + sequencing; frameworks hold sequencing errors
MEASURED PROPERTY: polyreactivity (PSR sort gate)

So for QVQLVESGGGLVQAGGSLRLSCAASGSIFAVNAMGWYRPAPGKERELVAAITSGGITYYADSVKGRFTISRDNAKNTVYLQMNSLKPEDTAVYYCATVFSVQGWYFGMNYWGQGTQVTVSS , the logged polyreactivity (PSR sort gate) turned out to be low polyreactivity

So for QVQLVESGGGLVQAGGSLRLSCAASGAIFYYYCMGWYRQAPGKEREWVAGISSRGGRTYYADSVKGRFTISRDNAKNTVYLQMNSLKPVDTAVYYCAADRYYYAYRYFPSGYWGQGTQVTVSS , the logged polyreactivity (PSR sort gate) turned out to be low polyreactivity

So for QFQLVETGGGLVQAGGSLRLSCAASGITFVRYAMGWYSQAPGKERELVAGISRGGSTNYADSVKGRFTISRDNAKNTVYLQMNSLKPEDTAVYYCNRANSFFDTHTLQFYYWGQGTQVTVSS , the logged polyreactivity (PSR sort gate) turned out to be high polyreactivity

So for QVQLVESGGGLVQAGGSLRLSCAASGSIFLIYAMGWYRQAPGKERELVAAISSGGSTYYADSVKGRFTISRDNAKNTVYLQMNSLKPEDTAVYYCATYSTSVAFHLYYWGQGTQVTVSS , the logged polyreactivity (PSR sort gate) turned out to be low polyreactivity

So for QVQLVESGGGLVQAGGSLRLSCAAAGRTFFKYAMGWYRQAPGKERELVATITSSGGITYADSVKGRFTISRDNAKNTVYLQMNRLKPEDTAVYYCNARVWVTHYSELNYWVQGTQVTVSS , the logged polyreactivity (PSR sort gate) turned out to be low polyreactivity

So for QVQLVESGGGLVQAGGSLRLSCAASGSTLPGFTMGWYRHAPGKERELVAAISWSGGSTSYADSVKGRFTISRDNAKNTVYLQMNSLKPEDTAVYYCDVDRFWRPVRSGSTYDYWGQGTQVTVSS , the logged polyreactivity (PSR sort gate) turned out to be low polyreactivity

So for QVQLVESGGGLVQAGGSLRLSCAASGRTFSYNTMGCYRQAPGKERELVARITWGGGSTNYADSVKGRFTISRDNAKNTVYLQMNSLKPEDTAVYYCAREYSSVYWVRHLFYYWGQGTQVTVSS , the logged polyreactivity (PSR sort gate) turned out to be low polyreactivity

So for QVQLVESGGGLVQAGGSLRLSCAPSGIIFYAYAMGWYRQAPGKEREFVAAINNSGGRTYYADSVKGRFTISRDNAKNTVYLQMNSLKPEDTAVYYCAVYSYYRRTYRREMDYWGQGTQVTVSS , the logged polyreactivity (PSR sort gate) turned out to be high polyreactivity

So for KVQLVESGGGLVQAGGSLRLSCAASGFIFYRNTMGWYRQAPGKEREFVAAIRWRGGSTYYADSVKGRFTISRDNAKNTVYLQMNSLKPEDTAVYYCAADTRPGYSGFEYWGQGTQVTVSS , the logged polyreactivity (PSR sort gate) turned out to be high polyreactivity

So for QVHLEESGGGIVQAGGSLRLSCAASGFTFPVHAMGWYRQAPGKERQLVAAIRWIGGDTYYADSVKGRFTISRDNAKNTVYLQMNSLKPEDTAVYYCAAEDTDDYSIWFEYWGQGTQVTVSS , the logged polyreactivity (PSR sort gate) turned out to be high polyreactivity

New cases:
So for QVQLVESGGGLVQAGGSLRLSCAASGRTFYRYAMGWYRQAPGKERELVAAITTGGGSTYYADSVKGRFTISRDNAKNTVYLQMNSLKPEETAVYYCNVYSSYTRRTLGDYWGQGTQVTVSS , the logged polyreactivity (PSR sort gate) turned out to be high polyreactivity

So for QVQLLESGGGLVLAGGSLRLSCAASGRIFNLYAMGWYRQAPGKERELVAAITDIGSSTYYADSVKGRFTISRDNAKNTVYLQMNSLKPEDTAVYYCNAVVKSSSRGSIAHPGYDYWGQGTQVTVSS , the logged polyreactivity (PSR sort gate) turned out to be high polyreactivity

So for QVQLVESGGGLVQAGGSLRLSCAASGRTFNAMGWSRQAPGKERELVASISRRGGSTSYADSVKGRFTISRDNAKNTVYLQMYSLKPEDTAVYYCAARVGWVRYGYWGQGTQVTVSS , the logged polyreactivity (PSR sort gate) turned out to be low polyreactivity

So for QVQLVESGGGLVQAGGSLRLSCAASGFIIANNAMGWYRQAPGKERELVASIRTRGGSTYYADSVKGRFTISRDNAKNTVYLQMNSLKPEDTAVYYSAARPFPRRYDYWGQGTQVTVSS , the logged polyreactivity (PSR sort gate) turned out to be low polyreactivity

So for QVQLVESGGGLVQAGGSLRLSCAASGSTFSFYAMGWYRQAPGKERELVAAISWSDGSTYYADSVKGRFTISRDNAKNTVYLQMNSLKPEDTAVYYCAARRLAYIFYTVGYDYWGQGTQVTVSS , the logged polyreactivity (PSR sort gate) turned out to be low polyreactivity

So for QVQLVESGGGLVQEGGSLRLSCAASGRTLHKNVMGWYRQAPGKERELVAAINTGGRTYYADSVKGRFTISRDNAKHTVYLQMNSLKPEDTAVYYCAKEGHVNPRPTVGGDYWGHGTQVTVSS , the logged polyreactivity (PSR sort gate) turned out to be low polyreactivity

So for QVQLVESGGGLVQAGGSLRLSCAASGSTFYPNAMGWSRQAPGKERELVAAISRGTRTKYADSVKGRFTISRDNAKNTVYLQMKSLKPEDTAVYYCAADTGTGLDWGQGTQVTVSS , the logged polyreactivity (PSR sort gate) turned out to be high polyreactivity

So for QVQLVESGGGLVQAGGSLRLSCAASGSISYYYGKGWYRQAPGKERELVAAISTRGGSTYYADSVKGRFTISRDNAKNTVYLQMNSLKPEDTAVYYCNKVYYKRFYYWGQGTQVTVSS , the logged polyreactivity (PSR sort gate) turned out to be high polyreactivity
